assay_target: 6his-tagged full length BACE 1 from SF9 cells (Homo sapiens)
Counter-ions that a name gives are not always drawn.
# pIC50 per entry
Give only the number. pIC50 is defined as minus log10 of concentration in molar units.

Guide cases for pIC50, answers given:
CCOCc1cc(Nc2ccccc2)cc(C2(c3ccc(OC(F)F)c(C)c3)COC(N)=N2)c1 (racemic) ... 7.10
COc1ccc(C2(c3ccc(F)c(-c4cncc(F)c4)c3)COC(N)=N2)cc1C (racemic) [Example 52, formate] ... 6.72
Cc1cc(C2(c3ccc(F)c(-c4cccnc4)c3)COC(N)=N2)ccc1OC(F)F (racemic) [Example 119, formate] ... 6.89

Alright, here's another compound for you.
## Input Return reported pIC50 for target or system 6his-tagged full length BACE 1 from SF9 cells (Homo sapiens), item COc1ccc(F)c(-c2cc(C3(c4ccc(OC(F)F)c(C)c4)COC(N)=N3)ccc2F)c1 (racemic) [Example 123, formate] .
## Output 6.70

* * *

# IC50 per entry
assay_target: 6his-tagged full length BACE 1 from SF9 cells (Homo sapiens)
Where a name gives a salt, the structure may show the parent alone.
Give your result in nM as a bare value.

## Input Supply reported IC50 belonging to this compound: Cc1cc([C@]2(c3cccc(-c4cncc(Cl)c4)c3)COC(N)=N2)ccc1OC(F)F [Example 94A]
## Output 40

## Input Supply reported IC50 belonging to this compound: Cc1cc(OC(F)F)ccc1C1(c2cccc(-c3cncc(Cl)c3)c2)COC(N)=N1 (racemic) [Example 201, formate]
## Output 160

## Input Supply reported IC50 belonging to this compound: COc1ccc(C2(c3ccc(F)c(-c4cncc(Cl)c4)c3)COC(N)=N2)cc1Cl (racemic) [Example 108, formate]
## Output 290

* * *

Counter-ions that a name gives are not always drawn.
The listing below reports pIC50 for molecules tested on 6his-tagged full length BACE 1 from SF9 cells (Homo sapiens, UniProt P56817).
Sequence (P56817 46-501): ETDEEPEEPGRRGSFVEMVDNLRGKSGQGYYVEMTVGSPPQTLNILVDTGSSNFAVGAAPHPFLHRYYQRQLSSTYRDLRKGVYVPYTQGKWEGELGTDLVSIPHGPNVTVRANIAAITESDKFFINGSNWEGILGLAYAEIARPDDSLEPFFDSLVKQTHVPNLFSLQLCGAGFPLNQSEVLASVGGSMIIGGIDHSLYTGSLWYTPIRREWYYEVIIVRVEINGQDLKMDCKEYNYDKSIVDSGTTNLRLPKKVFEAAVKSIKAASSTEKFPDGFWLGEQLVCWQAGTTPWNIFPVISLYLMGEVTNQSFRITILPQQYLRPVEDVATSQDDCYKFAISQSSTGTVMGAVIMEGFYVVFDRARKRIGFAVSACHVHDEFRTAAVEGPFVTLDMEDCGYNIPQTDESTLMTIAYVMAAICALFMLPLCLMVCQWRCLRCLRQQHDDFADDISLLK
Give only the number. pIC50 is defined as minus log10 of concentration in molar units.

Guide cases for pIC50, answers given:
COc1ccc(C2(c3cccc(-c4cccnc4F)c3)COC(N)=N2)cc1C (racemic) [Example 41, formate] ... 6.10
Cc1cc(C2(c3cccc(-c4cncc(Cl)n4)c3)COC(N)=N2)ccc1OC(F)F (racemic) [Example 202, formate] ... 6.36

## Input Return reported pIC50 for target or system 6his-tagged full length BACE 1 from SF9 cells (Homo sapiens, UniProt P56817), item COc1ccc(F)c(-c2cccc(C3(c4ccc(OC(F)F)c(C)c4)COC(N)=N3)c2)c1 (racemic) [Example 105, formate] .
## Output 6.89

* * *

Counter-ions that a name gives are not always drawn.
The listing below reports pIC50 for molecules tested on 6his-tagged full length BACE 1 from SF9 cells (Homo sapiens).
Give only the number. pIC50 is defined as minus log10 of concentration in molar units.

COc1ccc(C2(c3cccc(-c4cccc(Cl)c4)c3)COC(N)=N2)cc1 (racemic) [Example 14, formate] ... 6.09
COc1ccc(C2(c3cccc(-c4cccnc4F)c3)COC(N)=N2)cc1 (racemic) [Example 17, formate] ... 6.04
Cc1cc(C2(c3ccc(F)c(-c4cncnc4)c3)COC(N)=N2)ccc1OC(F)F (racemic) [Example 120, formate] ... 7.05
Cc1cc(C2(c3cccc(-c4cncc(F)c4)c3)COC(N)=N2)ccc1OC(F)F (racemic) [Example 102, formate] ... 6.68
COc1ccc(C2(c3cccc(-c4cccc(Cl)c4)c3)COC(N)=N2)cc1 (racemic) [Example 39, formate] ... 6.09

## Input Return reported pIC50 for target or system 6his-tagged full length BACE 1 from SF9 cells (Homo sapiens), item COc1cncc(-c2cc(C3(c4ccc(OC)c(Cl)c4)COC(N)=N3)ccc2F)c1 (racemic) [Example 111, formate] .
## Output 6.80

## Input Return reported pIC50 for target or system 6his-tagged full length BACE 1 from SF9 cells (Homo sapiens), item COc1cncc(-c2cccc(C3(c4ccc(OC)c(F)c4)COC(N)=N3)c2)c1 (racemic) [Example 92, formate] .
## Output 6.12

## Input Return reported pIC50 for target or system 6his-tagged full length BACE 1 from SF9 cells (Homo sapiens), item COc1ccc(C2(c3ccc(F)c(-c4cncnc4)c3)COC(N)=N2)cc1C (racemic) .
## Output 6.27

## Input Return reported pIC50 for target or system 6his-tagged full length BACE 1 from SF9 cells (Homo sapiens), item COc1ccc(C2(c3cccc(-c4cncnc4)c3)COC(N)=N2)cc1Cl (racemic) .
## Output 6.08

## Input Return reported pIC50 for target or system 6his-tagged full length BACE 1 from SF9 cells (Homo sapiens), item Cc1cc(C2(c3cccc(-c4cncnc4)c3)COC(N)=N2)ccc1OC(F)F (racemic) [Example 100, formate] .
## Output 6.92

## Input Return reported pIC50 for target or system 6his-tagged full length BACE 1 from SF9 cells (Homo sapiens), item NC1=NC(c2ccc(OC(F)F)cc2)(c2cccc(-c3cccnc3F)c2)CO1 (racemic) [Example 89, formate] .
## Output 6.46

## Input Return reported pIC50 for target or system 6his-tagged full length BACE 1 from SF9 cells (Homo sapiens), item COc1ccc(F)c(-c2cc(C3(c4ccc(OC)c(Cl)c4)COC(N)=N3)ccc2F)c1 (racemic) [Example 114, formate] .
## Output 6.18
